These measurements were taken from ChEMBL document CHEMBL1201862.

Test system: OVCAR-4
experimentalDetails: NCI tumour cell line growth inhibition, 48 h
Active and inactive are the calls of the source. Cut-off read from the data, not from the text of the source: active = GI50 up to about 1.1 µM and inactive = higher.
Labels: yes for active, no for inactive

{"columns": ["molecule", "targetEntity", "labelValue"],
 "data": [
  ["C[Si](C)(C)c1ccc(CC2(Cc3ccc([Si](C)(C)C)cc3)CCNC2)cc1", "OVCAR-4", "no"],
  ["CCOCC(=O)N[C@H]1CCc2cc(OC(=O)COCC)c(OC)c(OC)c2-c2ccc(SC)c(=O)cc21", "OVCAR-4", "no"],
  ["COc1ccc(OC)c(CCc2cc(OC)ccc2OC)c1", "OVCAR-4", "no"],
  ["C=C(Br)CN(C#N)CC(=C)Br", "OVCAR-4", "no"],
  ["COc1cccc(C2=NC(C(C)C)CO2)c1 (stereo unspecified)", "OVCAR-4", "no"],
  ["CCSC(=O)N1c2ccc(OC)cc2C=CC1C#N (stereo unspecified)", "OVCAR-4", "yes"],
  ["CCN(CC)c1ccc(/C=C/c2ccnc3ccccc23)cc1", "OVCAR-4", "no"],
  ["C[C@]12CCC(=O)C=C1CC[C@@H]1C2CC[C@]2(C)Nc3[nH]ncc3CC12 (stereo partly specified)", "OVCAR-4", "no"],
  ["Cc1ccc(-c2c(C#N)c(O)n(NS(=O)(=O)c3ccccc3)c(=O)c2C#N)cc1", "OVCAR-4", "no"],
  ["COc1cccc(/C=C2/Sc3scc(-c4ccccc4)[n+]3C2=O)c1O", "OVCAR-4", "no"],
  ["COc1ccc(C2COc3c(ccc(OC)c3OC)C2=O)cc1OC (stereo unspecified)", "OVCAR-4", "no"]
]}

* * *

Each entry below lists one item and its recorded GI50 value.
Test system: MDA-N
experimentalDetails: NCI tumour cell line growth inhibition, 48 h
Active and inactive are the calls of the source. Rule as the data show it: active = GI50 up to about 1.1 µM and inactive = higher. Residues, ends and D or L forms follow the SMILES beside them. *: point of attachment. Boc = CC(C)(C)OC(=O)*; Bz = O=C(c1ccccc1)*

{"columns": ["compound", "targetEntity", "GI50"],
 "data": [
  ["C[O+]=C1C=CC(=C2SC(c3ccccc3)(c3ccccc3)c3ccccc32)C=C1.[O-][Cl+3]([O-])([O-])[O-]", "MDA-N", "21.1 µM (inactive)"],
  ["COc1ccc2c(c1)CC[C@@H]1[C@@H]2CC[C@]2(C)/C(=N/OCCN3CCCCC3)CC[C@@H]12", "MDA-N", "2.33 µM (inactive)"],
  ["c1ccc2c3c([nH]c2c1)C1c2[nH]c4ccccc4c2CCN1CC3", "MDA-N", "18.1 µM (inactive)"],
  ["CC(Oc1ccccc1)C(=O)NNC(=O)OC(C)(C)C (centres undefined)", "MDA-N", "> 100 µM (inactive)"],
  ["O=C1c2ccccc2C(=O)c2sc(Nc3ccccc3Cl)nc21", "MDA-N", "2.41 µM (inactive)"],
  ["Oc1ccc2ccccc2c1Cc1c(O)ccc2ccccc12", "MDA-N", "11.6 µM (inactive)"],
  ["CC1(c2nc3cc(Cl)c(Cl)cc3[nH]2)CCC(CO)C(C)(C)O1 (centres undefined)", "MDA-N", "29 µM (inactive)"],
  ["Cc1nn(C(=O)Cc2ccccc2)c2c1C(c1ccc3ccccc3c1O)SC(=N)N2 (centres undefined)", "MDA-N", "> 100 µM (inactive)"],
  ["CC(NC(=O)C(Cc1ccc(OC(=O)c2ccccc2)cc1)NC(=O)OC(C)(C)C)C(=O)NC(Cc1ccccc1)C(=O)NCC(N)=O (centres undefined) (Boc-Y(Bz)AFG-NH2; configuration not given here)", "MDA-N", "25.8 µM (inactive)"]
]}
